- System: 521955-158-R6-J3-PDC complex spheroid growth, % test/control;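 note: spheroids exposed to compounds for 7 days; 100% = DMSO vehicle control wells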
- ASSAY NOTES: Anticancer human tumor 521955-158-R6-J3-PDC patient-derived pancreatic carcinoma cell line growth inhibition [Asc]
- CONDITION DESCRIPTION: second compound 0.3 µM; first compound 0.316 µM; stronger effect = lower value
# reported viability, T/C; entries follow
ASSAY READOUT: viability, T/C (%)

compound="CCN1CCN(Cc2ccc(Nc3ncc(F)c(-c4cc(F)c5nc(C)n(C(C)C)c5c4)n3)nc2)CC1 + CCN1C(C(=O)NC23CCC(C(=O)O)(CC2)CC3)C(c2cccc(Cl)c2F)C2(C(=O)Nc3cc(Cl)ccc32)C12CCCCC2" target_or_system="521955-158-R6-J3-PDC complex spheroid growth, % test/control" measured_result=93.1
compound="C#Cc1c(F)ccc2cc(O)cc(-c3ncc4c(N5CC6CCC(C5)N6)nc(OCC56CCCN5CC(F)C6)nc4c3F)c12 (centres undefined) + CCN1C(C(=O)NC23CCC(C(=O)O)(CC2)CC3)C(c2cccc(Cl)c2F)C2(C(=O)Nc3cc(Cl)ccc32)C12CCCCC2" target_or_system="521955-158-R6-J3-PDC complex spheroid growth, % test/control" measured_result=42.4
compound="O=C(c1cc(Cc2n[nH]c(=O)c3ccccc23)ccc1F)N1CCN(C(=O)C2CC2)CC1 + CCN1C(C(=O)NC23CCC(C(=O)O)(CC2)CC3)C(c2cccc(Cl)c2F)C2(C(=O)Nc3cc(Cl)ccc32)C12CCCCC2" target_or_system="521955-158-R6-J3-PDC complex spheroid growth, % test/control" measured_result=135
compound="CNC(C)C(=O)NC1CN(S(=O)(=O)c2cccc(S(=O)(=O)N3CCC4CCC(C(=O)NC(c5ccccc5)c5ccccc5)N4C(=O)C(NC(=O)C(C)NC)C3)c2)CCC2CCC(C(=O)NC(c3ccccc3)c3ccccc3)N2C1=O (centres undefined) + CCN1C(C(=O)NC23CCC(C(=O)O)(CC2)CC3)C(c2cccc(Cl)c2F)C2(C(=O)Nc3cc(Cl)ccc32)C12CCCCC2" target_or_system="521955-158-R6-J3-PDC complex spheroid growth, % test/control" measured_result=93.5
